The origin of these recorded values is ChEMBL document CHEMBL4673296.

# TESTED_TARGET: Serine/threonine-protein kinase ULK1 (Homo sapiens) (UniProt O75385)
# Sequence (O75385 whole entry): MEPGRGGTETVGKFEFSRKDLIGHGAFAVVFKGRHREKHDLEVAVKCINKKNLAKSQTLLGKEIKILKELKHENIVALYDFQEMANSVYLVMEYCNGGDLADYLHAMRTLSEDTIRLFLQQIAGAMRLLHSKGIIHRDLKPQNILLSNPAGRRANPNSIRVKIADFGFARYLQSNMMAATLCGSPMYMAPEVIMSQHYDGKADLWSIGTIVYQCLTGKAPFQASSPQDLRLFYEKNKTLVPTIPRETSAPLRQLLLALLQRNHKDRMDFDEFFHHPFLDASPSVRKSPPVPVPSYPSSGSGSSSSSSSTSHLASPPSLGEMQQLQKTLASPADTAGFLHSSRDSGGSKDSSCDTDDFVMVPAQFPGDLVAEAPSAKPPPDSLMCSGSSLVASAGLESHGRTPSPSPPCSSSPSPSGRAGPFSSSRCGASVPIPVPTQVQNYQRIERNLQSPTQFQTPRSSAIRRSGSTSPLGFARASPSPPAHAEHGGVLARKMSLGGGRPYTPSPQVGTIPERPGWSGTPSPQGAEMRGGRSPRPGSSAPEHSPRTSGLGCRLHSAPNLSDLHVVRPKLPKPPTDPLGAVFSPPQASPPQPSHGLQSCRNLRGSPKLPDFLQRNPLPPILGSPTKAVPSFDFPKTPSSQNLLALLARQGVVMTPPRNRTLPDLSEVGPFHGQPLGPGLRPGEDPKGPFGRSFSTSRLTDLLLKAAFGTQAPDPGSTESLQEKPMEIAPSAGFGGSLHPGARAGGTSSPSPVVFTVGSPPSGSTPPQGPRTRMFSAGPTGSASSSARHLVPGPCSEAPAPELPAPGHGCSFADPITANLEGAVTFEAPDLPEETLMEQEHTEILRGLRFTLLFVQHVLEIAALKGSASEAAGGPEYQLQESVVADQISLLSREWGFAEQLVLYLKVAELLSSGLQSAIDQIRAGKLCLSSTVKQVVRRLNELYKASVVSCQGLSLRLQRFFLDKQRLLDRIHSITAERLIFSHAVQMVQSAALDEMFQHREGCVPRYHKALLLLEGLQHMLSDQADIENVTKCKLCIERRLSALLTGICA
# PROTOCOL_NOTES: Inhibition of Myc-tagged ULK1 (unknown origin) expressed in HEK293T cells cotransfected with wild-type Flag tagged Vps34 assessed as decrease in pVPS34 Ser249 at 10 uM measured after 1 hr by Western blot analysis relative to control
# Type: cell-based
Entries and their inhibition
# number then unit; no other words

In [3]: df
Out[3]:
                              record_smiles                             tested_target  reading
0  COc1ccc(Nc2ncc(C(F)(F)F)c(NC3CC3)n2)cc1OC  Serine/threonine-protein kinase ULK1 (Homo sapiens) (UniProt O75385)      90%

Entry FC(F)(F)c1cnc(Nc2ccc3nc[nH]c3c2)nc1NC1CC1 has what inhibition? 70%

Again, but for COc1cncc(Nc2ncc(C(F)(F)F)c(NC3CC3)n2)c1 70%

Again, but for Nc1ccc(Nc2ncc(C(F)(F)F)c(NC3CC3)n2)cc1 70%

Again, but for FC(F)(F)c1cnc(Nc2ccc3ncoc3c2)nc1NC1CC1 70%

Again, but for FC(F)(F)c1cnc(Nc2ccc3ncccc3c2)nc1NC1CC1 70%
